System: NCI-H23 lung
Assay: NCI-60 one-dose screen, 48 h (100 = growth as untreated, 0 = no growth, -100 = all killed)
Settings: 10 µM unless noted
The panel holds about 83,000 compounds, 20% with a hit somewhere; the sample as a whole holds those more often.
Answer each item with its documented growth.
Give bare numbers, in %.

Below are worked cases with known answers.
molecule	growth [%]
Nc1nc(Nc2ccccc2SSc2ccccc2Nc2nc(N)nc(-c3ccccc3)n2)nc(-c2ccccc2)n1	50.8
O=C(Nc1ccc(N=Cc2c(O)[nH]c3ccccc23)cc1)Nc1nccs1	37.8
CCCCCc1ccc(S(=O)(=O)Nc2cccc(-c3csc(NC(=O)CN4CCN(CCO)CC4)n3)c2)cc1	84.7

# batch: return growth for each of the 6 molecules below
1. N#C/C(=C\c1ccc(-c2ccc(Cl)cc2Cl)o1)c1ccc(F)cc1
2. Cc1ccc(NC(=O)c2ccc(CN3CCOCC3)c(C(F)(F)F)c2)cc1Oc1ccc(-c2[nH]nc3ncnc(N)c23)cc1
3. O=C1CCCC2=C1C(c1c[nH]c3ccc(Br)cc13)Cc1cc(Br)ccc1N2 (stereo not given)
4. Cc1cccc2c3c(sc12)C(c1ccc(F)cc1)C(C#N)=C(/N=C/c1ccc(Cl)cc1)O3 (stereo not given)
5. CS(=O)(=O)c1ncc(-c2ccccc2)cn1
6. Clc1ccc(N/N=c2/oc3ccccc3cc2-c2cc3ccccc3[nH]2)cc1

[87.7, 84.6, 45.8, 19.1, 96, 64.4]

Field request: growth | item: CCC(NC(c1cc2cccc3ccc4cccc1c4c32)c1nnnn1C(C)(C)C)C1CCCCC1 (stereo not given)
46.6

###

System: NCI-H460 lung
Test: NCI-60 one-dose screen, 48 h (100 = growth as untreated, 0 = no growth, -100 = all killed)
Conditions: 10 µM unless noted
About 83,000 compounds went through this panel and 20% of them were active in at least one assay; those are over-represented in the sample as a whole.
measured-property: growth (%)
Answers are plain numbers, in %.

Below are worked cases with known answers.
O=S(=O)(NCCCNc1nccc(-c2[nH]c(-c3ccccc3)nc2-c2ccc(Cl)c(O)c2)n1)c1cccc(F)c1 55.2
O=C(CSc1nc2ccccc2c(=O)n1-c1ccccc1)Nc1ccc(-c2nc3ccc([N+](=O)[O-])cc3[nH]2)cc1 63.5

# batch: return growth for each of the 2 compounds below
1. O=C(Nc1ccc2c(ccn2Cc2ccccn2)c1)c1cnccn1
2. COc1cc(OC)c(/C=C/S(=O)(=O)Cc2ccc(OC)c(NC(=O)CCC(=O)NO)c2)c(OC)c1

105
6.85

###

Test system: K-562 leukemia
Assay: NCI-60 one-dose screen, 48 h (100 = growth as untreated, 0 = no growth, -100 = all killed)
Conditions: 10 µM unless noted
Compounds without any hit were thinned out: in the full panel of roughly 83,000, 20% have a hit.
Please assign rule not met whenever growth is at or above 90%, and rule met whenever it is below.

compound	label-class
N#Cc1cccc(CN2CCC3=C(C2)C(=O)N(Cc2ccc(Cl)cc2)C2=NCCN23)c1	rule met
O=C(Nc1ccc2c(ccn2Cc2ccccn2)c1)c1cnccn1	rule not met
Nc1ncc(-c2ccc3ncnc(N4CCc5cc(F)c(Cl)cc54)c3c2)cn1	rule met
COc1cc(Nc2c(C#N)cnn3cc(-c4cnn(CC(C)(C)O)c4)cc23)ccc1Cl	rule met
COc1ccc(/C=C/C(=O)c2cc(S(N)(=O)=O)c(OC)cc2OC)cc1	rule met

A record lists CC(C)(C)c1ccc(C(=O)Nc2sc3c(c2C(N)=O)CC/C(=N\O)C3)cc1 . Is its growth below 90%?
rule met

A record lists CN1CCN(Cc2ccc(NC(=O)c3cncc(C#Cc4cnc5ccc(NCCCO)nn45)c3)cc2C(F)(F)F)CC1 . Is its growth below 90%?
rule met

A record lists COc1c(N2CC3CCCNC3C2)c(F)cc2c(=O)c(C(=O)N/N=C/c3ccccc3)cn(C3CC3)c12 (stereo not given) . Is its growth below 90%?
rule met

A record lists O=C(CSc1nnc(-c2ccc(Cl)cc2)n1-c1ccccc1)Nc1cccc(Cl)c1 . Is its growth below 90%?
rule met

A record lists Cc1cccc2c3c(sc12)C(c1ccc(F)cc1)C(C#N)=C(/N=C/c1ccc(Cl)cc1)O3 (stereo not given) . Is its growth below 90%?
rule met

A record lists COc1cccc(O)c1/C=C(/C)c1ccc2c(OC)cccc2[o+]1 . Is its growth below 90%?
rule not met

A record lists O=C1Nc2ccccc2/C1=C/c1ccc(COCC2CO2)n1-c1ccc(O)cc1 (stereo not given) . Is its growth below 90%?
rule not met

A record lists COc1ccc(Cn2cc3c(c2-c2cc(OC)c(OC)c(OC)c2)CCc2c(CN4CCOCC4)noc2-3)cc1 . Is its growth below 90%?
rule met

A record lists CCCn1cnc2c(c1=N)C(c1ccc(OC)cc1)c1sc3c(CC)cccc3c1O2 (stereo not given) . Is its growth below 90%?
rule met

A record lists COc1cc(-c2ccc3ncnc(NCc4ccccc4)c3c2)cnc1OC . Is its growth below 90%?
rule met

A record lists C#CCC#CCN1CCC[C@H]1C(=O)NCC(=O)OC . Is its growth below 90%?
rule not met

Entry source: PubChem BioAssay (NCI)
